src = paper PMC9933715

System: Huh7.5 cells
ASSAY NAME: Cell viability, CellTiter-Glo luminescent assay
MEASUREMENT CONDITIONS: Table S3, NPP3C analogues, 50 µM, Huh7.5
# if measured Cell viability (Fold DMSO) < 1 Fold DMSO: criterion met  # else: criterion not met

{"columns": ["COMPOUND", "ASSIGNED LABEL"],
 "data": [
  ["CC(Nc1ccccc1)c1cccnc1 (stereo not drawn)", "criterion met"],
  ["Nc1cccc(NC(=O)c2cccnc2)c1", "criterion met"],
  ["O=C(NC1CC1)c1ccc(C(F)(F)F)nc1", "criterion met"],
  ["O=C(Nc1ccncc1)c1ccccc1", "criterion not met"],
  ["Oc1ccc2[nH]ncc2c1", "criterion met"],
  ["O=C(Nc1ccccc1)c1ccc(C(F)(F)F)nc1", "criterion met"]
]}
